Value source: paper PMC2131780

Below, each entry is listed with its recorded IC50.
Test system: COX enzymes (CT26 mouse colon adenocarcinoma cells)
Assay: COX inhibition, PGE2 production in CT26 cells
Assay type: cell-based
Conditions: average of two experiments in triplicate, read-out: COX inhibition (IC50, µM) CT26
Source text: In addition, the aromatic rings of the diphenylamine moiety were substituted with different electron donating or withdrawing groups. […]
property.name: IC50 (µM)

- molecule: "O=C(Cc1cc([N+](=O)[O-])ccc1Nc1c(Cl)cccc1Cl)NCCO [Compound 7]"
  readout.units: "µM"
  value.modifier: ">"
  observed: 50
- molecule: "O=C(O)Cc1ccccc1Nc1c(Cl)cccc1Cl [Diclofenac, reference compound]"
  readout.units: "µM"
  value.modifier: "="
  observed: 0.003
- molecule: "O=C(Cc1cc([N+](=O)[O-])ccc1Nc1c(Cl)cccc1Cl)OCCO [Compound 15]"
  readout.units: "µM"
  value.modifier: "="
  observed: 0.048
